Here the recorded IC50 is given for each entry.
# measured_target: Neuropilin-1 (Homo sapiens)
# Sequence (O14786 whole entry): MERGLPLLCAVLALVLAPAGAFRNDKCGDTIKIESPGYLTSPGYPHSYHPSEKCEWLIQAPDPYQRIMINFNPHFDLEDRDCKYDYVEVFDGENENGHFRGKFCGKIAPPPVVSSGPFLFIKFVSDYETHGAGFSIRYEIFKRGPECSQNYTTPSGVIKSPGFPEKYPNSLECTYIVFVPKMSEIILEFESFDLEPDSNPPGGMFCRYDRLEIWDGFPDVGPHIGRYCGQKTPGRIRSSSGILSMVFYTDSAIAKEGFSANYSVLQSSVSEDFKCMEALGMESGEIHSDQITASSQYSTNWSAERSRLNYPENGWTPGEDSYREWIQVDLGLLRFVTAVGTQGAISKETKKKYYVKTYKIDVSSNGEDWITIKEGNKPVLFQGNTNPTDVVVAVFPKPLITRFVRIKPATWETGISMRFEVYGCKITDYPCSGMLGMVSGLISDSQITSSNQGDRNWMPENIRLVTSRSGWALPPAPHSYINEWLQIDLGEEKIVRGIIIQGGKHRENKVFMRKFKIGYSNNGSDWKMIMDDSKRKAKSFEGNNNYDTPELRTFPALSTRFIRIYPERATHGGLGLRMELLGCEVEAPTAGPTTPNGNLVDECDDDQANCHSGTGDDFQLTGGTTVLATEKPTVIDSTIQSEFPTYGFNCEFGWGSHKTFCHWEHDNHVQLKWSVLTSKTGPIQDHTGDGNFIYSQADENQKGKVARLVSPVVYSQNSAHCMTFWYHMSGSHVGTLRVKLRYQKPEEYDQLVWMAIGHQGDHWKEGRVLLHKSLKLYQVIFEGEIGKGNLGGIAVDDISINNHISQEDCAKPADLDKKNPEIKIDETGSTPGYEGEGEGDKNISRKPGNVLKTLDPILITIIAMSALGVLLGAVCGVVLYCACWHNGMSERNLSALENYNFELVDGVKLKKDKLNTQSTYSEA
# method_summary: Inhibition of biotinylated VEGF-A165 binding to recombinant NRP1 (unknown origin) measured after 2 hrs by competition binding assay
Peptide text beside a SMILES is read from it.
Express it in µM; write the number only.

compound | unit | obs_value
C[C@@H](O)[C@H](N)C(=O)N[C@@H](CCCCN)C(=O)N1CCC[C@H]1C(=O)N[C@@H](CCCNC(=N)N)C(=O)O (H-TKPR-OH) | µM | 25

*Q* Report IC50 under test system Neuropilin-1 (Homo sapiens) for `CC1(C)O[C@@H]2[C@H](O1)[C@H](CN(CCCCCNC(=N)N)C(=N)N)O[C@@H]2CC(=O)NCCc1c[nH]c2ccccc12` .
*A* 120

# credit: ChEMBL document CHEMBL4428108
